Biological target: µ-opioid receptor of the guinea pig ileum (GPI) (guinea pig)
Experiment: cell-based or functional assay
Non-standard residues stand in square brackets, D forms with d. *: point of attachment. NH(1-Adamantyl) = C1C2CC3CC1CC(N*)(C2)C3; Dmt = Cc1cc(O)cc(C)c1C[C@H](N)C(=O)O; NH‑tetrazole‑5‑yl = n1nc(N*)n[nH]1; Tic = O=C(O)[C@@H]1Cc2ccccc2CN1
Could you please report measured GPI ED50 for the items listed next?
Give bare numbers, in µM.

See these solved cases before continuing.
- binder: "{N,N‑dimethyl}-[Dmt]-[Tic]-{NH(1-Adamantyl)} [N,N(Me)2-Dmt-Tic-NH-1-adamantane]"
  unit.annotation: "µM"
  GPI ED50: 0.016
- binder: "H-[Dmt]-[Tic]-{NH‑tetrazole‑5‑yl} [H-Dmt-Tic-NH-tetrazole-5-yl]"
  unit.annotation: "µM"
  GPI ED50: 8.2

Okay, now this binder:
query: For the binder shown here, H-[Dmt]-[Tic]-Ala-{NH(1-Adamantyl)} [H-Dmt-Tic-Ala-NH-1-adamantane] , give the reported GPI ED50.
result: 1
